Measured values drawn from patent US20240209076A1 for this set.

TESTED SYSTEM: human IL-6 (human, UniProt P05231 30-212)
Sequence (P05231 30-212 limits assumed): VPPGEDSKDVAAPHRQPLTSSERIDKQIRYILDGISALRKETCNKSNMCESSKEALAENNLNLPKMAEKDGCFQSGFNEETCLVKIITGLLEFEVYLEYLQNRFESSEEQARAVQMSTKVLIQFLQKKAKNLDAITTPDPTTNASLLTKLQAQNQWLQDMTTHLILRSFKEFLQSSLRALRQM
ASSAY PROTOCOL: SPR (Biacore), purified antibody on Protein A chip, IL-6 flowed, 37 C
MEASURED QUANTITY: kon (M⁻¹ s⁻¹)
Express it in M⁻¹ s⁻¹; write the number only.

Examples with answers:
{"columns": ["BINDER", "kon, M⁻¹ s⁻¹"],
 "data": [
  ["anti-IL-6 antibody, heavy chain S35H, G66D / light chain M32L, M50D, N52S, M88Q (antibody, human IgG1, V domains shown, Human IgG1) VH: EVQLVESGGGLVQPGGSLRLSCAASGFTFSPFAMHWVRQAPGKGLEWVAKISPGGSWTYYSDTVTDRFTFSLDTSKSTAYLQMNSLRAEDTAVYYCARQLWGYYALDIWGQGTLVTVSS VL: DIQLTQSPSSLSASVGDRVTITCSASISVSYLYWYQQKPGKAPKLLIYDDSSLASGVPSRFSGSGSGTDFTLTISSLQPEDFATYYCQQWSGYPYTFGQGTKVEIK", "1.2e+06"],
  ["anti-IL-6 antibody, heavy chain T65Q, G66D / light chain M32L, M50D, N52S, M88Q (antibody, human IgG1, V domains shown, Human IgG1) VH: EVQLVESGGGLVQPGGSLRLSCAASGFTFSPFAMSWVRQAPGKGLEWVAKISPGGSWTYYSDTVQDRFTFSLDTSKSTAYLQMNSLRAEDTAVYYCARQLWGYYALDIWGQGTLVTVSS VL: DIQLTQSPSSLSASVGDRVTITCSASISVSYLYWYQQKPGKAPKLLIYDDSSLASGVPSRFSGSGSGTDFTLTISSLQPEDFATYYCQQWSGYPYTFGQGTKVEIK", "1.82e+06"],
  ["anti-IL-6 antibody, heavy chain T63K, G66D / light chain M32L, M50D, N52S, M88Q (antibody, human IgG1, V domains shown, Human IgG1) VH: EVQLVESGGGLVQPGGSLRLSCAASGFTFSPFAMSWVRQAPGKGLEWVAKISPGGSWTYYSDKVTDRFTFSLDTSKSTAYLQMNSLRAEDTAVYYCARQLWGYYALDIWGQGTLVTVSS VL: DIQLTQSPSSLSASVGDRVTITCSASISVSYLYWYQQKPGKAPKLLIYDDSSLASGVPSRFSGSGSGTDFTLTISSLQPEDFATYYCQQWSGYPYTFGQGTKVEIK", "1.59e+06"],
  ["anti-IL-6 antibody, heavy chain WT / light chain M32L, M50D, N52S, M88Q (antibody, human IgG1, V domains shown, Human IgG1) VH: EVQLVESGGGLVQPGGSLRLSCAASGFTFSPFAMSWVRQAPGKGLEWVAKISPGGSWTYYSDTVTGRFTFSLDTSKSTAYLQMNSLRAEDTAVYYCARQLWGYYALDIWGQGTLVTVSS VL: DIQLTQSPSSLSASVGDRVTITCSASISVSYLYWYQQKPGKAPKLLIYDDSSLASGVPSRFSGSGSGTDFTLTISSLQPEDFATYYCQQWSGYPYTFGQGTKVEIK", "1.12e+06"]
]}

Input anti-IL-6 antibody, heavy chain T63Q, G66D / light chain M32L, M50D, N52S, M88Q (antibody, human IgG1, V domains shown, Human IgG1) VH: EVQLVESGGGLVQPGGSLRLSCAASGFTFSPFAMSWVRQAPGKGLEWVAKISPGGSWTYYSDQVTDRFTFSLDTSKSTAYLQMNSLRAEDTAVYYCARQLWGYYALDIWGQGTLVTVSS VL: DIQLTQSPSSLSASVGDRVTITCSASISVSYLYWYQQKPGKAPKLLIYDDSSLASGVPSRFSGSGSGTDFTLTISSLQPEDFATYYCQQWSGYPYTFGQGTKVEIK . Output kon: 1.69e+06

Input anti-IL-6 antibody, heavy chain T63E, G66D / light chain M32L, M50D, N52S, M88Q (antibody, human IgG1, V domains shown, Human IgG1) VH: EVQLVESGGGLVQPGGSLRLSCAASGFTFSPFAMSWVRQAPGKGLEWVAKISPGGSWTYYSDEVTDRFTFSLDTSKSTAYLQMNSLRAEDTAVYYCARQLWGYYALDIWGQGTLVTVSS VL: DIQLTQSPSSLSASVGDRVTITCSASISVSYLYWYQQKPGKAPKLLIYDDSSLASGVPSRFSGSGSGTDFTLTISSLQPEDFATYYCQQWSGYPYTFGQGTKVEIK . Output kon: 1.65e+06

Input anti-IL-6 antibody, heavy chain G66D / light chain M32L, M50D, N52S, M88Q (antibody, human IgG1, V domains shown, Human IgG1) VH: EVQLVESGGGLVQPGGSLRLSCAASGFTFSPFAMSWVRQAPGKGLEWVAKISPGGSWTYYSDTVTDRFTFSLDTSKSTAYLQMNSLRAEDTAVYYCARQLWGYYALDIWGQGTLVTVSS VL: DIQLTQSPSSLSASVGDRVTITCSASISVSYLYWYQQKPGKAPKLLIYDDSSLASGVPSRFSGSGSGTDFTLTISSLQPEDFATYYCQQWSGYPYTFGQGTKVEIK . Output kon: 1.69e+06
